The measured values listed here are drawn from patent US20230265187A1.

Measured pKd values are reported for all entries that follow.
# measurement.target: T1, His-tagged cynomolgus monkey TIGIT (Acro Biosystems #TIT-05223) (cynomolgus monkey, UniProt A0A7N9I9V4 89-209)
# T1 construct: Bought protein; also called cyno TIGIT; cynomolgus TIGIT; not shown: His tag
# T1 sequence (A0A7N9I9V4 entry or part of it): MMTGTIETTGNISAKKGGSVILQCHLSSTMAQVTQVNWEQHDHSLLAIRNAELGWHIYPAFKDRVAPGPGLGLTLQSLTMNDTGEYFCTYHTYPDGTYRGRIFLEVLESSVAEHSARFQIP
# run.description: SPR (Carterra LSA), scFv-Fc captured, His-TIGIT analyte; repeat
pKd: −log10 of the molar value.

# binder, pKd
rows = [
    ("43586p1.2.G10 (scFv, V domains shown) VH: EVQLLESGGGLVQPGGSLRLSCAASGFTFDDYVMSWVRQAPGKELEWVSLINWNGDKTCYADSVKGRFTISRDNSKNTLYLQMNSLRAEDTAIYYCAKHWIVFQYGMDVWGQGTTVTVSS VL: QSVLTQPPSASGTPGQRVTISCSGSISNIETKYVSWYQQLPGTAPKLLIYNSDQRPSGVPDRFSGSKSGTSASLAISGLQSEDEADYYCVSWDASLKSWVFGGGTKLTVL", 8.20),
    ("43645p1.G5 (scFv, V domains shown) VH: EVQLLESGGGLVQPGGSLRLSCAASGFTFSSYYMSWVRQAPGKGLEWVSAISIFSGDSTYYADSVKGRFTISRDNSKNTLYLQMNSLRAEDTAVYYCAKSHTVLQYGMDVWGQGTTVTVSS VL: QSVLTQPPSASGTPGQRVTISCSGVTSNIRNYYVSWYQQLPGTAPKLLIYGNDQRPSGVPDRFSGSKSGTSASLAISGLQSEDEADYYCGTWDNTLNAWVFGGGTKLTVL", 9.43),
    ("43586p1.1.H8 (scFv, V domains shown) VH: EVQLLESGGGLVQPGGSLRLSCAASGFTFIDFWMSWVRQAPGKGLEWVSAISWIGDTYYYADSVKGRFTVSRDNSKNTVYLQMNSLRAEDTAVYYCAKHWTVYQYGMDVWGQGTTVTVSS VL: QSVLTQPPSASGTPGQRVIISCSGSTSDIETKYVSWYQQLPGTAPKLLIYGNHQRPSGVPDRFSGSKSGTSASLAISGLQSEDEADYYCTAWDNTLKSWVFGGGTKLTVL", 7.80),
    ("43645p1.D3 (scFv, V domains shown) VH: EVQLLESGGGLVQPGGSLRLSCAASGFTFSSYWMSWVRQAPGKGLEWVSGIHISDSTYYADSVKGRFTISRDNSKNTLYLQMNSLRAEDTAVYYCAKGHTVLQYGMDVWGQGTTVTVSS VL: QSGLTQPPSASGTPGQRVTISCSGDISNTRNNYVSWYQQLPGTAPKLLIYGNHQRPSGVPDRFSGSKSATSASLAISGLQSEDEADYYCGTWDNTLNAWVFGGGTKLTVL", 9.49),
    ("43586p1.2.F6 (scFv, V domains shown, Tested as scFv-Fc supernatant; also called 43586p1.2.F06) VH: EVQLLESGEGLVQPGGSLRLSCAASGFTFTSYLMSWVRQAPGKGLEWVSTITWDGDRTYYADSVKGRFTISRDNSKNTLYLQMNSLRVGDTAVYYCAKHWTVFQYGMDVWGQGTTVTVSS VL: QSVLTQPASASGTPGQRVTISCSGTISNIETKYVSWYQQLPGTAPKLLIYGNHQRPSGVPDRFSGSKSGTSASLAISGLQSEDEADYYCASWENDLKSWVFGGGTKLTVL", 8.34),
]
